Data credit: the supplement of paper PMC7214452

System: OCI-MY5/Vec (cancer type: MM)
assay.protocol: normalized area under the dose-response curve (viability relative to DMSO control) (fraction); higher = less sensitive (more viable cells)
details: exposure time not given
measured.endpoint: normalized area under the dose-response curve

| mol | target.or.system | measured.result |
| --- | --- | --- |
| Nc1nc(Cl)nc2c1ncn2[C@@H]1O[C@H](CO)[C@@H](O)[C@@H]1F | OCI-MY5/Vec (cancer type: MM) | 0.807 |
| CO[C@H]1C[C@@H]2CC[C@@H](C)[C@@](O)(O2)C(=O)C(=O)N2CCCC[C@H]2C(=O)O[C@H]([C@H](C)C[C@@H]2CC[C@@H](OCCO)[C@H](OC)C2)CC(=O)[C@H](C)/C=C(\C)[C@@H](O)[C@@H](OC)C(=O)[C@H](C)C[C@H](C)/C=C/C=C/C=C/1C | OCI-MY5/Vec (cancer type: MM) | 0.819 |
| CCN(CC)CCNC(=O)c1c(C)[nH]c(/C=C2\C(=O)Nc3ccc(F)cc32)c1C | OCI-MY5/Vec (cancer type: MM) | 0.82 |
| Cc1ccc(NC(=O)c2ccc(CN3CCN(C)CC3)cc2)cc1Nc1nccc(-c2cccnc2)n1 | OCI-MY5/Vec (cancer type: MM) | 0.804 |
| Cc1cccc(/C=N/Nc2cc(N3CCOCC3)n3nc(-c4ccncc4)cc3n2)c1 | OCI-MY5/Vec (cancer type: MM) | 0.794 |

###

Tested on: SKMM2 (cancer type: MM)
assay.protocol: normalized area under the dose-response curve (viability relative to DMSO control) (fraction); higher = less sensitive (more viable cells)
details: exposure time not given
Counter-ions that a name gives are not always drawn.
measured.endpoint: normalized area under the dose-response curve

| compound | measured.result |
| --- | --- |
| Cc1ccc(-n2nc(C(C)(C)C)cc2NC(=O)Nc2ccc(OCCN3CCOCC3)c3ccccc23)cc1 [Doramapimod] | 0.969 |
| Cn1c(CCCC(=O)O)nc2cc(N(CCCl)CCCl)ccc21 [Bendamustine hydrochloride] | 0.955 |
| C#Cc1cccc(Nc2ncnc3cc(OCCOC)c(OCCOC)cc23)c1 [Erlotinib hydrochloride] | 0.922 |
| CC(=O)Nc1cccc(-n2c(=O)n(C3CC3)c(=O)c3c(Nc4ccc(I)cc4F)n(C)c(=O)c(C)c32)c1 [Trametinib] | 0.964 |
| Nc1cc(C(F)(F)F)c(-c2cc(N3CCOCC3)nc(N3CCOCC3)n2)cn1 [Buparlisib] | 0.573 |

###

Known normalized area under the dose-response curve of a selection of compounds
System: KMS26 (cancer type: MM)
assay.protocol: normalized area under the dose-response curve (viability relative to DMSO control) (fraction); higher = less sensitive (more viable cells)
details: exposure time not given
Where a name gives a salt, the structure may show the parent alone.
measured.endpoint: normalized area under the dose-response curve

| compound | measured.result |
| --- | --- |
| Nc1cccc2c1CN(C1CCC(=O)NC1=O)C2=O (centres undefined) [Lenalidomide] | 0.785 |
| N[C@@H](Cc1ccc(N(CCCl)CCCl)cc1)C(=O)O [Melphalan hydrochloride] | 0.791 |
| CC(=O)c1c(C)c2cnc(Nc3ccc(N4CCNCC4)cn3)nc2n(C2CCCC2)c1=O | 0.769 |
| Nc1nc(F)nc2c1ncn2[C@@H]1O[C@H](COP(=O)(O)O)[C@@H](O)[C@@H]1O [Fludarabine phosphate] | 0.863 |

###

Known normalized area under the dose-response curve of a selection of compounds
Test system: SU-DHL2 (cancer type: DLBCL)
assay.protocol: normalized area under the dose-response curve (viability relative to DMSO control) (fraction); higher = less sensitive (more viable cells)
details: exposure time not given
measured.endpoint: normalized area under the dose-response curve

| compound | measured.result |
| --- | --- |
| CC(C)(O)CNc1nc(Nc2ccnc(C(F)(F)F)c2)nc(-c2cccc(C(F)(F)F)n2)n1 | 0.918 |
| COc1cc2nccc(Oc3ccc(NC(=O)C4(C(=O)Nc5ccc(F)cc5)CC4)cc3)c2cc1OC [Cabozantinib] | 0.917 |
| CC(=O)c1c(C)c2cnc(Nc3ccc(N4CCNCC4)cn3)nc2n(C2CCCC2)c1=O | 0.897 |

###

Known normalized area under the dose-response curve of a selection of compounds
Test system: OCI-MY5/CRBN (cancer type: MM)
assay.protocol: normalized area under the dose-response curve (viability relative to DMSO control) (fraction); higher = less sensitive (more viable cells)
details: exposure time not given
Counter-ions that a name gives are not always drawn.
measured.endpoint: normalized area under the dose-response curve

| compound | measured.result |
| --- | --- |
| CO[C@H]1C[C@@H]2CC[C@@H](C)[C@@](O)(O2)C(=O)C(=O)N2CCCC[C@H]2C(=O)O[C@H]([C@H](C)C[C@@H]2CC[C@@H](OCCO)[C@H](OC)C2)CC(=O)[C@H](C)/C=C(\C)[C@@H](O)[C@@H](OC)C(=O)[C@H](C)C[C@H](C)/C=C/C=C/C=C/1C | 0.829 |
| Cc1cccc(/C=N/Nc2cc(N3CCOCC3)n3nc(-c4ccncc4)cc3n2)c1 | 0.867 |
| Nc1nc(F)nc2c1ncn2[C@@H]1O[C@H](COP(=O)(O)O)[C@@H](O)[C@@H]1O [Fludarabine phosphate] | 0.972 |
| O=C(c1ccc(F)c(F)c1Nc1ccc(I)cc1F)N1CC(O)([C@@H]2CCCCN2)C1 | 0.822 |
| C#Cc1cccc(Nc2ncnc3cc(OCCOC)c(OCCOC)cc23)c1 [Erlotinib hydrochloride] | 0.878 |
| O=C(/C=C\n1cnc(-c2cc(C(F)(F)F)cc(C(F)(F)F)c2)n1)NNc1cnccn1 [Selinexor] | 0.105 |
| CCCS(=O)(=O)Nc1ccc(F)c(C(=O)c2c[nH]c3ncc(-c4ccc(Cl)cc4)cc23)c1F | 0.958 |
| Nc1ncn([C@H]2C[C@H](O)[C@@H](CO)O2)c(=O)n1 | 0.888 |
| COc1cc(Nc2c(C#N)cnc3cc(OCCCN4CCN(C)CC4)c(OC)cc23)c(Cl)cc1Cl | 0.933 |
| CC(=O)c1c(C)c2cnc(Nc3ccc(N4CCNCC4)cn3)nc2n(C2CCCC2)c1=O | 0.9 |
